The measurements presented in this section are drawn from the Deep4Chem optical property database.

assay: solvent given as SMILES; settings: in ClCCl
Lab note: anything with emission maximum at or over 400 nm counts as condition met; the rest go in condition not met.

1. Cc1cc(-n2c3ccccc3c3ccccc32)ccc1-c1ccc(S(=O)(=O)c2ccccc2)cc1C ... condition met
2. c1ccc(-n2c3ccccc3c3cc(-c4cccc(-n5c6ccccc6c6ncccc65)c4)ccc32)cc1 ... condition not met
3. CN(C)c1ccc(C2=Nc3sc4cc(Cl)ccc4[n+]3[B-](F)(F)O2)cc1 ... condition met
4. c1ccc(N(c2ccccc2)c2ccc(-n3ccc4cc(-c5cccc6c5-c5ccccc5C6(c5ccccc5)c5ccccc5)ccc43)cc2)cc1 ... condition not met
5. CC(C)c1cccc(C(C)C)c1N1C(=O)c2ccc3cc4c(cc5ccc6c7c(ccc4c57)C(=O)N(c4c(C(C)C)cccc4C(C)C)C6=O)c4ccc(c2c34)C1=O ... condition met

Turning now to a further record.
Check this compound for emission maximum at or above 400 nm: CC1=CC(C)=[N+]2C1=C(c1ccc3cccnc3n1)c1c(C)cc(C)n1[B-]2(F)F condition met

* * *

experiment: solvent given as SMILES; details: in CC#N
emission maximum by entry:
I only need the number, in nm, no unit after it.

// returns reported emission maximum for input CN1CCCc2cc3c(C(F)(F)F)cc(=O)oc3cc21 510

emission maximum for C(=C\c1nc2ccccc2s1)/c1ccc(-c2nc3c4cccnc4c4ncccc4c3[nH]2)cc1 ? 485

Please report the recorded emission maximum for C[C@]12SC(=O)C=C1c1nc(-c3ccc(Cl)cc3Cl)[nH]c1C1=CC(=O)S[C@@]12C . 500

Fill blank: measured emission maximum of the molecule Nc1nc2ccc(F)cc2[n+]([O-])n1 is ____. 491

Could you tell me which emission maximum is on file for Cc1csc2[n+]1[B-](F)(F)n1c(c3cccc4cccc1c43)=N2 ? 499

# get_value(readout='emission maximum', item= N#CC(C#N)=Cc1ccc2c(c1)c1ccccc1n2-c1cc2ccccc2c2ccccc12 ) 503

Query: emission maximum; subject: O=C(O)c1ccccc1-c1nc(-c2ccccc2)c2ccccn12 494

Any idea what emission maximum was measured for COc1c2ccccc2c(OC)c2c1c1cc(Cl)ccc1n2C ? 432

Which emission maximum value is on record for F[B-]1(F)n2c(c3cccc4cccc2c43)=Nc2cccc(Cl)[n+]21 ? 502

* * *

experiment: solvent given as SMILES; details: in O
Please use T whenever emission maximum is not below 500 nm, and F whenever it is.

Past entries and their recorded results:
1. NS(=O)(=O)c1ccc(N2N=C(c3ccc(O)cc3)CC2c2ccc([N+](=O)[O-])cc2)cc1 (centres undefined) ... F
2. CC[N+](CC)=c1ccc2c(-c3ccccc3C(=O)O)c3c(=O)oc4c5c6c(cc4c3oc-2c1)CCCN6CCC5 ... T
3. [O-]c1ccc2ccccc2c1 ... F

Item CCn1c(-c2ccc(-c3ccc(-c4ccc(-c5n(CC)c6ccccc6[n+]5CC)cc4)cc3)cc2)[n+](CC)c2ccccc21 with emission maximum of 500 nm or above? F

Can CN1/C(=C/C=C(/C=C/c2sc3ccccc3[n+]2C)c2ccccc2)Sc2ccccc21 be said to have emission maximum at or above 500 nm? T

Please check the record CCNc1ccc2c(c1)C(C)(C)C(=O)C=C2 and state if its emission maximum is at or above 500 nm. T

Could you please find out whether CC[N+](CC)=c1ccc2cc3c(oc-2c1)-c1ccc(N(C)C)cc1CC3 has emission maximum that meets 500 nm or exceeds it? T

Tell me whether emission maximum is at least 500 nm here: CC(=O)OCOC(=O)CN(CC(=O)OCOC(C)=O)c1ccccc1OCCOc1cc(NC(=O)c2ccc3c(c2)C(=O)OC32c3cc(Cl)c(OC(C)=O)cc3Oc3cc(OC(C)=O)c(Cl)cc32)ccc1N(CC(=O)OCOC(C)=O)CC(=O)OCOC(C)=O T

* * *

experiment: solvent given as SMILES; details: in ClCCl
RESULT TYPE: emission maximum

1. N#C/C(=C\c1cc(/C=C(\C#N)c2ccc(C(F)(F)F)cc2)c(-c2ccc(N(c3ccccc3)c3ccccc3)cc2)cc1-c1ccc(N(c2ccccc2)c2ccccc2)cc1)c1ccc(C(F)(F)F)cc1 ... 594 nm
2. COC(=O)C1=C(C(=O)OC)C2(c3ccccc3-c3ccccc32)[C@@H](c2ccc(C)cc2)C=C2c3cc(OC)c(OC)cc3CCN21 ... 425 nm
3. COc1cc(OC)cc(C2=C3C(C)=C(I)C(C)=[N+]3[B-](F)(F)n3c(/C=C/c4ccsc4)c(I)c(C)c32)c1 ... 610 nm

I would be grateful if you could share the reported emission maximum for CCCCCCCCC1(CCCCCCCC)c2cc(-c3ccc(C(F)(F)F)cc3)ccc2-c2ccc(N(c3ccc(-n4c5ccccc5c5ccccc54)cc3)c3ccc4c(c3)C(CCCCCCCC)(CCCCCCCC)c3cc(-c5ccc(C(F)(F)F)cc5)ccc3-4)cc21 . 465 nm

Please look up its emission maximum: CSc1cc(-c2cc3cc4c5c(c3oc2=O)CCCN5CCC4)oc(=O)c1C#N 586 nm

Quick check: emission maximum of COc1c2ccccc2c(OC)c2c(C#Cc3ccccc3)c3cc4ccccc4cc3c(C#Cc3ccccc3)c12 ? 718 nm

Fill blank: measured emission maximum of the molecule COc1ccc(-c2cn3cc(C)c[n+]3[n-]2)cc1 is ____. 421 nm

Which emission maximum value belongs to COc1c2ccccc2c(OC)c2c1c1c(C)ccc(OC)c1n2C ? 443 nm

* * *

experiment: solvent given as SMILES; settings: in ClC(Cl)(Cl)Cl
RESULT TYPE: emission maximum
Your reply should be a number followed by the unit it is expressed in.

Bench note: what emission maximum did CCN(CC)c1ccc2ccc(=O)oc2c1 show? 412 nm

Value lookup for emission maximum; key = CCCCCCCC(=O)Oc1ccc2c3cccc4c(OC(=O)CCCCCCC)ccc(c5cccc1c52)c43 456.99 nm

# query: emission maximum of entry N#Cc1cc(-c2ccc(F)cc2)cnc1O 429 nm

Bench note: what emission maximum did CN(C)c1ccc(/C=C/C=C/c2nc3ccccc3s2)cc1 show? 499 nm

# get_value(readout='emission maximum', item= F[B-]1(F)OC(c2ccccc2)=CC(c2ccccc2)=[O+]1 ) 389 nm

* * *

assay: solvent given as SMILES; conditions: in CO
Rule: measured emission maximum below 500 nm gets fulfilled; anything equal to or greater than 500 nm gets not fulfilled.

Some solved cases for reference:
1. c1cc2c3c(cccc3c1)NC(c1ccc3ccc4cccc5ccc1c3c45)N2 ... fulfilled
2. N#Cc1cc(-c2ccc(F)cc2)cnc1O ... fulfilled

Hi there! Is emission maximum for COc1c2ccccc2c(OC)c2c1c1c(F)cccc1n2C below 500 nm, do you know? fulfilled

# TODO verify emission maximum < 500 nm strictly for this compound: CN(C)CCCN1c2ccccc2Sc2ccccc21 fulfilled

Strictly below 500 nm in emission maximum? c1ccc(-c2cc(-c3ccc4ccc5c(-c6ccnc(-c7ccccn7)c6)ccc6ccc3c4c65)ccn2)nc1 fulfilled

Consider the compound COC(=O)C(NC(=O)OC(C)(C)C)c1ccc2oc(-c3cccc(Oc4ccccc4)c3)nc2c1 (stereo not drawn) . Is its emission maximum strictly less than 500 nm? fulfilled

* * *

assay: solvent given as SMILES; conditions: in ClC(Cl)Cl
Quick rule for you: emission maximum under 500 nm gets 1, anything else gets 0.

Answer whether the molecule F[B-]1(F)n2c(cc3sc4ccccc4c32)C(c2ccc(I)cc2)=C2C=c3sc4ccccc4c3=[N+]21 has emission maximum strictly less than 500 nm 0

Confirm or reject: emission maximum of C(=N\c1ccc(-c2cn3nc(-c4cccs4)sc3n2)cc1)/c1ccc(N(c2ccccc2)c2ccccc2)cc1 lies strictly below 500 nm 0

Please check: emission maximum for CC(C)(C)c1ccc2c(c1)c1cc(C(C)(C)C)ccc1n2-c1ccc2oc3nc4oc5cc(C(F)(F)F)ccc5c4cc3c2c1 , strictly under 500 nm or not? 1

Criterion: emission maximum strictly below 500 nm. Is it met by CCn1c2ccccc2c2cc(/C=C/C(=O)c3ccc4c(c3)c3cc(C(=O)/C=C/c5ccc6c(c5)c5ccccc5n6CC)ccc3n4CC)ccc21 ? 1

Does the reported emission maximum of CN(C)c1ccc(/C=C2\CC/C(=C\c3ccc(N(C)C)cc3)C2=O)cc1 stay below 500 nm? 0

Determine whether this molecule shows emission maximum lower than 500 nm (ties excluded): COc1ccc2cc(-c3ccc(-c4cc5ccc(OC)cc5oc4=O)cc3)c(=O)oc2c1 1

Please determine if Cc1cccc(C)c1-c1cc2c(C)c3c4ccc5nc6c(ccc7c8c(C)c9cc(-c%10c(C)cccc%10C)c(-c%10c(C)cccc%10C)cc9c(C)c8c76)nc5c4c3c(C)c2cc1-c1c(C)cccc1C is below 500 nm in terms of emission maximum. 0

Is emission maximum of CC1=CC(C)=[N+]2C1=C(c1ccc(I)cc1)c1c(C)cc(C)n1[B-]21OCCO1 strictly below 500 nm? 0
